Provenance of the data: paper PMC7399811

# Tested on: red blood cells
# APPLIED CONDITIONS: at 150 µM peptide; 0.5% v/v RBC in PBS, 1 h 37 °C, absorbance 414 nm, normalized to melittin (100%) and PBS (0%)
Square brackets hold non-standard residues; d marks the D form. Peptide text beside a SMILES is read from it. Bip = N[C@@H](Cc1ccc(-c2ccccc2)cc1)C(=O)O; 2Nal = N[C@@H](Cc1ccc2ccccc2c1)C(=O)O; Dab = NCC[C@H](N)C(=O)O; AEEA = NCCOCCOCC(=O)O
// values below are reported percent hemolytic activity against red blood cells (%H)

N=C(N)NCCC[C@@H]1NC(=O)[C@H](Cc2ccc3ccccc3c2)NC(=O)[C@H](CCCNC(=N)N)NC(=O)[C@H](CC(N)=O)NC(=O)[C@H](CCN)NC(=O)[C@H](Cc2ccc3ccccc3c2)NC(=O)COCCOCCNC(=O)[C@H](Cc2ccccc2)NC(=O)[C@H](CCN)NC1=O [compound 16] (cyclo(R[2Nal]R[Dab]F[AEEA][2Nal][Dab]N))    16%

// below: percent hemolytic activity against red blood cells (%H) requested for another compound
Value sought: percent hemolytic activity against red blood cells (%H), system red blood cells, item N=C(N)NCCC[C@@H]1NC(=O)[C@H](Cc2ccc3ccccc3c2)NC(=O)COCCOCCNC(=O)[C@H](Cc2ccc(-c3ccccc3)cc2)NC(=O)[C@H](CCCNC(=N)N)NC(=O)[C@H](CCCNC(=N)N)NC(=O)[C@H](Cc2ccc3ccccc3c2)NC(=O)[C@H](CCCNC(=N)N)NC(=O)[C@H](CC(N)=O)NC1=O [compound 14] (cyclo(R[2Nal]RR[Bip][AEEA][2Nal]RN)) . Result: 68%
